experimental target: human FAAH (Homo sapiens)
Construct: host or cells: COS-7 cells, transient transfection (FuGENE 6); 13,000 g membrane fraction solubilised in 1% Triton X-100
assay comment: Human FAAH biochemical inhibition assay (AMC arachidonoyl amide fluorescence)
test settings: class given in each Example, read-out: Activity (Ki, inhibition of human FAAH)
pKi: −log10 of the molar value.
pKi reference

Study these solved cases before continuing.
# compound, experimental target, pKi
data = [
    ("CN(CCCc1ccc(B(O)O)cc1)C(=O)OC(C)(C)C [Compound 235]", "human FAAH (Homo sapiens)", "≥ 8.00"),
    ("O=C(N/N=C/c1cc(OCc2ccccc2)ccc1B(O)O)c1cccnc1 [Compound 125]", "human FAAH (Homo sapiens)", "7.00 to 8.00"),
    ("O=S(=O)(c1ccccc1)N1CCC(c2ccc(B(O)O)cc2)CC1 [Compound 236]", "human FAAH (Homo sapiens)", "7.00 to 8.00"),
]

Read the next record carefully.
Query block: Requested read-out: pKi. Entry: O=C(CCc1ccccc1)N/N=C/c1ccccc1B(O)O [Compound 116]
Result block: < 6.00

---

Measured pKi, listed per entry for reference.
experimental target: human FAAH (Homo sapiens)
Construct: host or cells: COS-7 cells, transient transfection (FuGENE 6); 13,000 g membrane fraction solubilised in 1% Triton X-100
assay comment: Human FAAH biochemical inhibition assay (AMC arachidonoyl amide fluorescence)
test settings: class given in each Example, read-out: Activity (Ki, inhibition of human FAAH)
pKi: −log10 of the molar value.

Known pKi results, listed for orientation:
# chem smiles, pKi
records = [
    ("CCOc1nnc(-c2ccccc2B(O)O)o1", "< 6.00"),
    ("OB(O)c1ccc(Cc2nnc(-c3ccccc3)o2)cc1", "7.00 to 8.00"),
    ("CC(=O)N/N=C/c1cc(OCCc2ccccc2)ccc1B(O)O", "≥ 8.00"),
    ("COc1ccccc1Oc1ccc2cc(B(O)O)ccc2n1", "≥ 8.00"),
    ("OB(O)c1ccc2cc(Oc3ccccn3)ccc2c1", "≥ 8.00"),
]

Query block: I'd like to know its pKi. The compound in question is OB(O)c1ccc(-n2nncc2-c2ccccc2)cc1
Result block: 7.00 to 8.00

Query block: One more compound: CCCCCCc1nnc(-c2ccc(B(O)O)cc2)o1
Result block: ≥ 8.00

Query block: OB(O)c1ccc(-n2cc(-c3ccccc3)nn2)cc1 ?
Result block: ≥ 8.00

Query block: Next entry: OB(O)c1ccc(-c2nnc(-c3cccnc3)o2)cc1
Result block: ≥ 8.00

Query block: What do you have for CCCc1nnc(-c2ccc(B(O)O)c(-c3nnc(CCC)o3)c2)o1 ?
Result block: ≥ 8.00

Query block: // next record Cc1nnc(/C=C/c2ccccc2B(O)O)o1
Result block: 6.00 to 7.00

---

experimental target: human FAAH (Homo sapiens, UniProt O00519)
Construct: host or cells: COS-7 cells, transient transfection (FuGENE 6); 13,000 g membrane fraction solubilised in 1% Triton X-100
Sequence (O00519 1-579): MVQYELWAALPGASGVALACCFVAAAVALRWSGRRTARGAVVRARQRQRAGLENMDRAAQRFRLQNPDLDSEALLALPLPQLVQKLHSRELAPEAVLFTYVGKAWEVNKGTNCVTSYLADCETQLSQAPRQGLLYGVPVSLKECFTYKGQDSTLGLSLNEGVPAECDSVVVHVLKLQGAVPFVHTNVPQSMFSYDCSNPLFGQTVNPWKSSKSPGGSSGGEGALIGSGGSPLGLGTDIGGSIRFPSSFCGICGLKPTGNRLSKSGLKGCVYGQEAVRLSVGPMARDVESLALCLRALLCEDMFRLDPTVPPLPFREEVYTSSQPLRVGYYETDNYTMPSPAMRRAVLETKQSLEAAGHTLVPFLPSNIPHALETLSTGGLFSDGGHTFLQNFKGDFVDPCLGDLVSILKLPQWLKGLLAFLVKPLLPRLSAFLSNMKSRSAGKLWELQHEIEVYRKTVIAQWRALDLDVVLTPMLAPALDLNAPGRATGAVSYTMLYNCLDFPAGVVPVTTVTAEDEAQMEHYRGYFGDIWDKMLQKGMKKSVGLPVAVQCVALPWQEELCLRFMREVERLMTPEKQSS
assay comment: Human FAAH biochemical inhibition assay (AMC arachidonoyl amide fluorescence)
test settings: class given in each Example, read-out: Activity (Ki, inhibition of human FAAH)
recorded metric: Ki

# example entries with known answers
# chem smiles, Ki
rows = [
    ("OB(O)c1ccc2cc(Oc3cnccn3)ccc2c1", "≤ 10 nM"),
    ("OCCN1N=Cc2cc(OCCc3ccccc3)ccc2B1O", "> 1000 nM"),
    ("CC(C)(C)OC(=O)NCc1nnc(-c2ccc(B(O)O)cc2)o1", "10 to 100 nM"),
]

Query block: Requested field: Ki. Item: OB(O)c1ccc2nc(Oc3ccccc3)cnc2c1
Result block: 10 to 100 nM

Query block: Another: OB(O)c1ccccc1-c1nnc(CCC(F)(F)F)o1
Result block: > 1000 nM

Query block: Consider next the compound CC(C)CCCc1nnc(-c2ccc(B(O)O)cc2)o1 in the same way.
Result block: ≤ 10 nM

---

experimental target: human FAAH (Homo sapiens)
Construct: host or cells: COS-7 cells, transient transfection (FuGENE 6); 13,000 g membrane fraction solubilised in 1% Triton X-100
assay comment: Human FAAH biochemical inhibition assay (AMC arachidonoyl amide fluorescence)
test settings: class given in each Example, read-out: Activity (Ki, inhibition of human FAAH)
pKi: −log10 of the molar value.
The following molecules are shown together with reported pKi values.

# molecule, value
data = [
    ("OB(O)c1ccc(-c2cnn(Cc3ccccc3)c2)cc1F [Compound 226]", "≥ 8.00"),
    ("O=C(c1ccccc1)c1ccc2cc(B(O)O)ccc2n1 [Compound 319]", "≥ 8.00"),
    ("OB(O)c1ccc(-c2nnc(-c3ccccc3)o2)c(Cl)c1 [Compound 68]", "≥ 8.00"),
    ("OB(O)c1ccc(-c2nnc(-c3ccccc3)o2)c(F)c1 [Compound 67]", "7.00 to 8.00"),
    ("OB(O)c1ccc2nc(Oc3ccccc3)sc2c1 [Compound 214]", "≥ 8.00"),
]

Query block: Please tell me: pKi of OB(O)c1ccc2nc(Oc3ccc(Cl)cc3)ccc2c1 [Compound 201] , system human FAAH (Homo sapiens)?
Result block: ≥ 8.00

Query block: Now the molecule OB(O)c1csc(-c2nnc(-c3ccccc3)o2)c1 [Compound 61]
Result block: 7.00 to 8.00

Query block: Would you kindly repeat that for OB(O)c1ccc2nc(Oc3cccc(Cl)c3)ccc2c1 [Compound 197] ?
Result block: ≥ 8.00

Query block: And what about the molecule CCCc1nnc(-c2cc(OCCc3ccccc3)ccc2B(O)O)o1 [Compound 17] ?
Result block: ≥ 8.00

Query block: Now give it for Cc1nc(-c2ccccc2)sc1-c1ccc(B(O)O)c(F)c1 [Compound 225] too.
Result block: 7.00 to 8.00

Query block: Query CN(c1ccccc1)c1ccc2cc(B(O)O)ccc2n1 [Compound 205] next
Result block: 7.00 to 8.00

Query block: Repeat with OB(O)c1ccc(OCCc2ccccc2)cc1COCc1ccccc1 [Compound 97]
Result block: < 6.00

Query block: And what about the molecule OB(O)c1ccc2nc(COc3ccccc3)ccc2c1 [Compound 221] ?
Result block: 7.00 to 8.00

---

In this section, each of the compounds is paired with its reported pKi.
experimental target: human FAAH (Homo sapiens)
Construct: host or cells: COS-7 cells, transient transfection (FuGENE 6); 13,000 g membrane fraction solubilised in 1% Triton X-100
assay comment: Human FAAH biochemical inhibition assay (AMC arachidonoyl amide fluorescence)
test settings: class given in each Example, read-out: Activity (Ki, inhibition of human FAAH)
pKi: −log10 of the molar value.

# compound, experimental target, pKi
rows = [
    ("OB(O)c1ccc2nc(Oc3cccnc3)ccc2c1 [Compound 209]", "human FAAH (Homo sapiens)", "≥ 8.00"),
    ("CCCCCc1nnc(-c2cc(B(O)O)cs2)o1 [Compound 27]", "human FAAH (Homo sapiens)", "≥ 8.00"),
    ("OB(O)c1ccc(Oc2ccc(F)nc2)cc1F [Compound 298]", "human FAAH (Homo sapiens)", "≥ 8.00"),
    ("CCCc1nnc(-c2cc(OCCc3ccccc3)ccc2B(O)O)s1 [Compound 267]", "human FAAH (Homo sapiens)", "≥ 8.00"),
    ("O=C1c2ccc(B(O)O)cc2C(=O)N1CCc1ccccc1 [Compound 309]", "human FAAH (Homo sapiens)", "≥ 8.00"),
    ("CCCCCc1nnc(-c2coc(B(O)O)c2)o1 [Compound 60]", "human FAAH (Homo sapiens)", "7.00 to 8.00"),
]

Query block: Reported pKi, compound COC(=O)/C=C/c1cc(OCCc2ccccc2)ccc1B(O)O [Compound 100] : ____
Result block: ≥ 8.00

Query block: Input OB(O)c1ccccc1-c1nc2ncccc2o1 [Compound 259]
Result block: < 6.00

Query block: Try the compound CCCc1nnc(-c2ccc(B(O)O)cc2)o1 [Compound 39]
Result block: ≥ 8.00

Query block: Next compound: O=C(/C=C/c1cc(OCCc2ccccc2)ccc1B(O)O)NCc1cccnc1 [Compound 287]
Result block: < 6.00
